study_target: bovine thrombin (Bos taurus, UniProt P00735)
assay_comment: Antithrombin activity: inhibition of fibrin formation from fibrinogen
Assay type: biochemical
Listing of recorded IC50 by entry.

Sample records with IC50:
| molecule | study_target | result |
| --- | --- | --- |
| CC(=O)c1ccc(NC(=O)[C@H](Cc2ccc(OCc3ccccc3Cl)cc2)NC(=O)[C@H]2CC[C@H](CN)CC2)cc1 [compound 83] | bovine thrombin (Bos taurus, UniProt P00735) | > 50 µM |
| CC(=O)c1ccc(NC(=O)[C@H](Cc2ccc(OC(C)C)cc2)NC(=O)[C@H]2CC[C@H](CN)CC2)cc1 [compound 14] | bovine thrombin (Bos taurus, UniProt P00735) | > 500 µM |

bovine thrombin (Bos taurus, UniProt P00735) data for Cc1ccc(NC(=O)[C@H](Cc2ccc(OCc3ccccc3)cc2)NC(=O)[C@H]2CC[C@H](CN)CC2)cc1C [compound 58] ; its IC50: > 50 µM

----------
study_target: human plasma kallikrein (Homo sapiens, UniProt P03952)
Sequence (P03952 391-638 limits assumed): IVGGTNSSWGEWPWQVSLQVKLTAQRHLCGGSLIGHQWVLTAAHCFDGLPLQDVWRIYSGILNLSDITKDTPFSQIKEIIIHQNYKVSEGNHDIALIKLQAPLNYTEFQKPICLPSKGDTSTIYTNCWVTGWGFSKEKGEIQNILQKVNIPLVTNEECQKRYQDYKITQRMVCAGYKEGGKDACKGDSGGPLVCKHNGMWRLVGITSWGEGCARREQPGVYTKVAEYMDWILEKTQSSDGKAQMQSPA
Sequence (P03952 20-390 partner limits assumed): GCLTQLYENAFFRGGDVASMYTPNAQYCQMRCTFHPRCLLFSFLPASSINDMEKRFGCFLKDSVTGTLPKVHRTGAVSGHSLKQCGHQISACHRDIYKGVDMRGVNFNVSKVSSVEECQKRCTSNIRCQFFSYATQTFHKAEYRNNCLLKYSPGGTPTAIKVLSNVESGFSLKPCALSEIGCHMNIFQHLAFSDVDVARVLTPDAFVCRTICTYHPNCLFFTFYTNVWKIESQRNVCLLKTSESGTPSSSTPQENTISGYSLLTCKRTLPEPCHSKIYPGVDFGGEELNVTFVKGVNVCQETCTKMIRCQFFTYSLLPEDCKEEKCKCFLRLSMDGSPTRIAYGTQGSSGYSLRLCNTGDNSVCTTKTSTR
assay_comment: Anti-plasma kallikrein activity: inhibition of S-2302 decomposition
Type: biochemical
measurement_context: Table 2; S-2302 substrate, pH 7.8, 37° C.; read-out: Plasma Kallikrein S-2302 (I50)
Structures can show the parent of a compound that is named as a salt.
readout_type: IC50 (nM)

Example entries and their recorded answers appear below.
| molecule | IC50, nM |
| --- | --- |
| NCc1ccc(C(=O)N[C@@H](Cc2ccc(OCc3ccccc3)cc2)C(=O)NC2CC3CCC2C3)cc1 (stereo partly shown) | 8300 |
| CC1CCC(NC(=O)C(Cc2ccc(OCc3ccc(F)cc3)cc2)NC(=O)c2ccc(CN)cc2)CC1C (stereo not shown) | 19000 |
| NC[C@H]1CC[C@H](C(=O)N[C@@H](Cc2ccc(OCc3ccccc3)cc2)C(=O)Nc2cccc(Cl)c2)CC1 | 1200 |
| CC1CCC(NC(=O)C(Cc2ccc(OCc3cccc(Cl)c3)cc2)NC(=O)c2ccc(CN)cc2)CC1C (stereo not shown) | 18000 |
| CC(=O)c1ccc(NC(=O)C(Cc2ccc(OCc3ccccc3)cc2)NC(=O)c2ccc(CN)cc2)cc1 (stereo not shown) | 3700 |

1: CC(=O)c1ccc(NC(=O)[C@H](Cc2ccc(OCc3cccc(C#N)c3)cc2)NC(=O)[C@H]2CC[C@H](CN)CC2)cc1 [Compound No. 122, hydrochloride]
2: Cc1ccc(NC(=O)[C@H](Cc2ccc(OCc3ccccc3)cc2)NC(=O)[C@H]2CC[C@H](CN)CC2)cc1
3: CC1CCC(NC(=O)C(Cc2ccc(Oc3ccc([N+](=O)[O-])cc3)cc2)NC(=O)c2ccc(CN)cc2)CC1C (stereo not shown)
4: CC(=O)c1ccc(NC(=O)[C@H](Cc2ccc(OCc3cccc(F)c3)cc2)NC(=O)[C@H]2CC[C@H](CN)CC2)cc1
# desc sort on IC50 across 4 molecules Respond with an ordered listing of the labels, as requested.
3, 2, 4, 1
(3: 20000 nM, 2: 2100 nM, 4: 760 nM, 1: 430 nM)

----------
study_target: human plasmin (Homo sapiens, UniProt P00747)
Sequence (P00747 581-810 limits assumed): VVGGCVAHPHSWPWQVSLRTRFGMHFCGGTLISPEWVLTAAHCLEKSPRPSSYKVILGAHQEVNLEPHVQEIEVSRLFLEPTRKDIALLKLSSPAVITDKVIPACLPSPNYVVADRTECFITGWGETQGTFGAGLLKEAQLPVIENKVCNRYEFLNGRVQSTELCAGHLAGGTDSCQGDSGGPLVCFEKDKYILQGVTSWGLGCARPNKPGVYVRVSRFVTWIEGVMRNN
Sequence (P00747 97-580 partner limits assumed): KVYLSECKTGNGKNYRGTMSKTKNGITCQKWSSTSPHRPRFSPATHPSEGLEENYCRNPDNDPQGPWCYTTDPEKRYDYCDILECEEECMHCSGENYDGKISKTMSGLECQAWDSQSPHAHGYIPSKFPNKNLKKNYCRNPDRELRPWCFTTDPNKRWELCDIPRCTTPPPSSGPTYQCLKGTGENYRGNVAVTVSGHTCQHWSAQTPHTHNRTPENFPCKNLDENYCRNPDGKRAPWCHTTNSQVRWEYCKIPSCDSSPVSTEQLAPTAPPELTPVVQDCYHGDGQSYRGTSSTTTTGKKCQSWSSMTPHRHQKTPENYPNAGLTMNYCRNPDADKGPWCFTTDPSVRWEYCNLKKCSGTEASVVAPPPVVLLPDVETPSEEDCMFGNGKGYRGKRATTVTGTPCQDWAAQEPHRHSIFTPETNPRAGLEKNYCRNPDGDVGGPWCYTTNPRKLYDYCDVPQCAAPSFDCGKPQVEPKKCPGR
assay_comment: Antiplasmin activity: inhibition of fibrin decomposition
Format: biochemical
measurement_context: Table 2; concentration at which fibrin dissolution time is extended twice, pH 7.4, 37° C.; read-out: Plasmin Fibrin (I50)
Where a name gives a salt, the structure may show the parent alone.
readout_type: IC50 (nM)

Previously resolved entries follow.
| compound | readout_type | value_unit | numeric_readout |
| --- | --- | --- | --- |
| CCOC(=O)C1CCCC(NC(=O)[C@H](Cc2ccc(OCc3cccc(Cl)c3)cc2)NC(=O)[C@H]2CC[C@H](CN)CC2)C1 (stereo partly shown) [compound 70] | IC50 | nM | 630 |
| CC1CCC(NC(=O)C(Cc2ccc(OCc3ccc(F)cc3)cc2)NC(=O)c2ccc(CN)cc2)CC1C (stereo not shown) [compound 106] | IC50 | nM | 540 |
| COc1ccc(C[C@H](NC(=O)[C@H]2CC[C@H](CN)CC2)C(=O)Nc2ccc(C(C)=O)cc2)cc1 [Compound No. 6] | IC50 | nM | 4600 |

I: CC(=O)c1ccc(NC(=O)[C@H](Cc2ccc(OC(C)C)cc2)NC(=O)[C@H]2CC[C@H](CN)CC2)cc1 [compound 14]
II: CC(=O)c1ccc(NC(=O)[C@H](Cc2ccc(OCc3cccc(Cl)c3)cc2)NC(=O)[C@H]2CC[C@H](CN)CC2)cc1 [Compound No. 35]
III: CC1CCC(NC(=O)[C@H](Cc2ccc(OCc3ccccc3)cc2)NC(=O)c2ccc(CN)cc2)CC1C (stereo partly shown) [Compound No. 80, hydrochloride]
IV: NC[C@H]1CC[C@H](C(=O)N[C@@H](Cc2ccc(OCc3ccccc3)cc2)C(=O)Nc2ccnc(Cl)c2)CC1 [Compound No. 59, hydrochloride]
Arrange the 4 entries by IC50 so the values rise. Form entry: ranked labels (order as requested).
II, IV, III, I

----------
study_target: human plasma kallikrein (Homo sapiens, UniProt P03952)
assay_comment: Anti-plasma kallikrein activity: inhibition of S-2302 decomposition
Assay type: biochemical
measurement_context: Table 2; S-2302 substrate, pH 7.8, 37° C.; read-out: Plasma Kallikrein S-2302 (I50)
pIC50: −log10 of the molar value. Where a name gives a salt, the structure may show the parent alone.
readout_type: pIC50

a: CC(=O)c1ccc(NC(=O)[C@H](Cc2ccc(Oc3ccc([N+](=O)[O-])cc3)cc2)NC(=O)[C@H]2CC[C@H](CN)CC2)cc1 [Compound No. 95, hydrochloride]
b: CC1CCC(NC(=O)C(Cc2ccc(OCc3cccc(Cl)c3)cc2)NC(=O)C2CCC(CN)CC2)CC1C (stereo not drawn) [compound 102]
c: CC(=O)c1ccc(NC(=O)[C@H](Cc2ccc(OCc3cc(Cl)ccc3Cl)cc2)NC(=O)[C@H]2CC[C@H](CN)CC2)cc1 [compound 125]
Please sort the compounds listed above from highest to lowest pIC50. Write the labels, ordered according to the request.
a, c, b

----------
study_target: bovine thrombin (Bos taurus)
assay_comment: Antithrombin activity: inhibition of fibrin formation from fibrinogen
Type: biochemical
pIC50: −log10 of the molar value. Structures can show the parent of a compound that is named as a salt.
Each entry below lists one item and its recorded pIC50 value.

| compound | result |
| --- | --- |
| C=CCOc1ccc(C[C@H](NC(=O)[C@H]2CC[C@H](CN)CC2)C(=O)Nc2ccc(C(C)=O)cc2)cc1 | < 3.30 |

Per the record, Cc1ccc(NC(=O)[C@H](Cc2ccc(OCc3ccccc3)cc2)NC(=O)[C@H]2CC[C@H](CN)CC2)cc1 has pIC50 of < 4.00

pIC50 reported for this compound CC(=O)c1ccc(NC(=O)[C@H](Cc2ccc(OCc3cccc(Cl)c3)cc2)NC(=O)[C@H]2CC[C@H](CN)CC2)cc1 : < 4.30

Record CC(=O)c1ccc(NC(=O)[C@H](Cc2ccc(OCc3cccc(C#N)c3)cc2)NC(=O)[C@H]2CC[C@H](CN)CC2)cc1 [Compound No. 122, hydrochloride] . Reported pIC50: < 4.30

----------
study_target: bovine thrombin (Bos taurus)
assay_comment: Antithrombin activity: inhibition of S-2238 decomposition
Type: biochemical
measurement_context: Table 2; S-2238 substrate, pH 8.3, 37° C.; read-out: Thrombin S-2238 (I50)
Where a name gives a salt, the structure may show the parent alone.
Measured IC50, listed per entry for reference.

| compound | readout_type | result |
| --- | --- | --- |
| COc1ccc(C[C@H](NC(=O)[C@H]2CC[C@H](CN)CC2)C(=O)Nc2ccc(C(C)=O)cc2)cc1 [Compound No. 6] | IC50 | 230 µM |
| NC[C@H]1CC[C@H](C(=O)N[C@@H](Cc2ccc(OCc3ccccc3)cc2)C(=O)Nc2ccncc2)CC1 [compound 40] | IC50 | > 1000 µM |
| CC(=O)c1ccc(NC(=O)[C@H](Cc2ccc(OCc3cccc(C(F)(F)F)c3)cc2)NC(=O)[C@H]2CC[C@H](CN)CC2)cc1 [compound 55] | IC50 | > 125 µM |
| CC1CCC(NC(=O)[C@H](Cc2ccc(OCc3ccccc3)cc2)NC(=O)c2ccc(CN)cc2)CC1C (some centres unmarked) [Compound No. 80, hydrochloride] | IC50 | > 100 µM |
| NCc1ccc(C(=O)N[C@@H](Cc2ccccc2)C(=O)Nc2cccc(C(F)(F)F)c2)cc1 [compound 131] | IC50 | > 200 µM |

Lab note: measured IC50 of NC[C@H]1CC[C@H](C(=O)N[C@@H](Cc2ccc(OCc3cccc(Cl)c3)cc2)C(=O)Nc2cccc(Cl)c2)CC1 [compound 66] was > 50 µM

IC50 measured on CC1CCCC(NC(=O)[C@H](Cc2ccc(OCc3ccccc3)cc2)NC(=O)c2ccc(CN)cc2)C1C (some centres unmarked) [compound 82] = > 50 µM

Just so you know, measured IC50 for CC(=O)c1ccc(NC(=O)C(Cc2ccc(Oc3cc(Cl)ccc3[N+](=O)[O-])cc2)NC(=O)C2CCC(CN)CC2)cc1 (centres unmarked) [compound 123] came out at 95 µM

Note to self: IC50 recorded for CC(=O)c1ccc(NC(=O)[C@H](Cc2ccc([N+](=O)[O-])cc2)NC(=O)[C@H]2CC[C@H](CN)CC2)cc1 [compound 130, hydrochloride] was > 400 µM

IC50 reading for CCOC(=O)c1ccc(COc2ccc(C[C@H](NC(=O)[C@H]3CC[C@H](CN)CC3)C(=O)Nc3ccc(C(C)=O)cc3)cc2)cc1 [compound 86] : > 100 µM

The compound CC(=O)c1ccc(NC(=O)[C@H](Cc2ccccc2)NC(=O)[C@H]2CC[C@H](CN)CC2)cc1 [Compound No. 2] showed IC50 equal to > 1000 µM

For reference, reported IC50 for NCc1ccc(C(=O)N[C@@H](Cc2ccc(OCc3ccccc3)cc2)C(=O)Nc2ccc(C(=O)O)cc2)cc1 [compound 139] stands at > 1000 µM

Given item CC(=O)c1ccc(NC(=O)[C@H](Cc2ccc(OCC(=O)c3ccccc3)cc2)NC(=O)[C@H]2CC[C@H](CN)CC2)cc1 [compound 30] , the value recorded as its IC50 is 280 µM

Memo: NCc1ccc(C(=O)N[C@@H](Cc2ccc(OCc3ccccc3)cc2)C(=O)N2CCN(C(=O)c3ccccc3)CC2)cc1 [compound 73] , reported IC50: > 400 µM

Consider Cc1ccc(NC(=O)[C@H](Cc2ccc(OCc3ccccc3)cc2)NC(=O)[C@H]2CC[C@H](CN)CC2)cc1 [compound 26] . Its measured IC50 is > 100 µM

Field IC50 (entry NCc1ccc(C(=O)N[C@@H](Cc2ccc(OCc3ccccc3)cc2)C(=O)NC2CCC(O)CC2)cc1 (some centres unmarked) [compound 88] ) reads > 200 µM
